The compounds listed here are annotated with their melting point.

Guide cases for melting point, answers given:
INSERT INTO results (chemical_smiles, value_type, result) VALUES
  ('CCc1nn(-c2c(Cl)cc(C(=O)O)cc2Cl)c2nc(Cc3ccc(O)cc3)[nH]c(=O)c12', 'melting point', '308 to 310 °C'),
  ('CCc1nn(-c2c(Cl)cc(C(F)(F)F)cc2Cl)c2nc(Cc3ccc(OC)cc3)[nH]c(=O)c12', 'melting point', '240 to 241 °C'),
  ('CSc1nn(-c2c(Cl)cc(Cl)cc2Cl)c2nc(Cc3ccc(O)cc3)[nH]c(=O)c12', 'melting point', '294 to 296 °C'),
  ('CC(C)c1nn(-c2c(Cl)cc(Cl)cc2Cl)c2nc(Cc3ccccn3)[nH]c(=O)c12', 'melting point', '214 to 215 °C'),
  ('CSc1nn(-c2c(C)cc(Cl)cc2Cl)c2nc(Cc3ccc(O)cc3)[nH]c(=O)c12', 'melting point', '277 to 279 °C');

# melting point of `O=c1[nH]c(Cc2ccc([N+](=O)[O-])c(O)c2)nc2c1c(C1CC1)nn2-c1c(Cl)cc(Cl)cc1Cl` = 259 to 260 °C

Summary for this compound, `CCc1nn(-c2c(Cl)cc(Cl)cc2Cl)c2nc(Cc3ccc(O)c([N+](=O)[O-])c3)[nH]c(=O)c12` : melting point is 263 to 266 °C

Please fill in: melting point reported for `CCc1nn(-c2c(Cl)cc(Br)cc2Cl)c2nc(Cc3ccc(OC)cc3)[nH]c(=O)c12` = 252 to 253 °C

The compound identified as `CSc1nn(-c2c(Cl)cc(Cl)cc2Cl)c2nc(Cc3ccncc3)[nH]c(=O)c12` registered its melting point at 283 to 287 °C

Looking up `CC(C)c1nn(-c2c(Cl)cc(Cl)cc2Cl)c2nc(Cc3ccncc3)[nH]c(=O)c12` , I found its melting point recorded as 273 to 275 °C

The origin of these recorded values is patent US6531477B1.
